Measurement target: T1, human GIP receptor (human) (UniProt P48546)
T1 sequence (looked up): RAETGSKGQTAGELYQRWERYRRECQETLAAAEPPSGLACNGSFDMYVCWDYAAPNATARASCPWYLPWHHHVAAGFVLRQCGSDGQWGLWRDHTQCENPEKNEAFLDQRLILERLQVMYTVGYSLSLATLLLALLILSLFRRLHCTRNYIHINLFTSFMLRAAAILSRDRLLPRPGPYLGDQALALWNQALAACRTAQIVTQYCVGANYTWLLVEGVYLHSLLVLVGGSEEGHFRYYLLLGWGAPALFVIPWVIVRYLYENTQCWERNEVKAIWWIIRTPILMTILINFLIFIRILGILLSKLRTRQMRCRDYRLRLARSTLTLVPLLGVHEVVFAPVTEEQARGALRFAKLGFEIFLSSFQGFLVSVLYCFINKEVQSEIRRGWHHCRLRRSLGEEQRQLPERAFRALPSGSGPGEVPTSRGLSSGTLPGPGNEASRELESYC
Experimental details: cell-based or functional assay
Non-standard residues stand in square brackets, D forms with d. No end group written: not given here. αMePhe(2-F) = C[C@](N)(Cc1ccccc1F)C(=O)O; Aib = CC(C)(N)C(=O)O
Measured endpoint: log10 of cAMP Rel EC50 (1% HSA) (log10 of the value in nM)
Values below are the log10 of the recorded cAMP Rel EC50 (1% HSA), with nM as the unit.

Worked cases, log10 of cAMP Rel EC50 (1% HSA) given:
YXQGTFTSDXSQXLDKKAQXAFIEYLIEXGPSSGAPPPSGSEE (acylated Lys e-γGlu-e-C18 diacid; non-natural residues; C-terminal amide; synthetic construct; SITE 2: note = 2-Aminoisobutyric Acid; SITE 10: note = 3-(4-Pyridyl)-L-alanine; SITE 13: note = alpha-methyl-leucine; SITE 17: note = Lysine is chemically modified through conjugation of the epsilon-amino group of the Lysine side chain with D-Glutamic acid-(gamma-Glu)-D-Glutamic) [Example 931] | 1.32
YXQGTFTSDXSQXLDKKAQXAFIEYLIAGGPSSGAPPPSGE (Aib, 4Pal, αMeL, Me4Pal; acylated K; C-terminal amide; synthetic construct; SITE 2: note = 2-Aminoisobutyric Acid; SITE 10: note = 3-(4-Pyridyl)-L-alanine; SITE 13: note = alpha-methyl-leucine; SITE 17: note = Lysine is chemically modified through conjugation of the epsilon-amino group of the Lysine side chain with (Glu)-(gamma-Glu)-CO-(CH2)16-CO2H; SIT) [Example 1086] | 1.33
Y[Aib]QGT[αMePhe(2-F)]TSDYSKLLDEIAQKAFIEYLLEGGPSSGEPPPSEG-NH2 (not fully specified (residue 20)) [Example 303] | 1.65

Turning now to a further binder:
## Input So what's the measured log10 of cAMP Rel EC50 (1% HSA) for this one? YXQGTFTSDXSQXLDKKAQXAFIEYLIAGGPSSGAPPPSGEEE (non-natural residues; acylated Lys; C-terminal amide; synthetic construct; SITE 2: note = 2-Aminoisobutyric Acid; SITE 10: note = 3-(4-Pyridyl)-L-alanine; SITE 13: note = alpha-methyl-leucine; SITE 17: note = Lysine is chemically modified through conjugation of the epsilon-amino group of the Lysine side chain with (Glu)-(gamma-Glu)-CO-(CH2)16-CO2H; SIT) [Example 1089]
## Output 1.54
